I'd be grateful if you could share measured KIM127 (Expression relative to IgG4) for these entries.
- SYSTEM_TESTED: human Mac-1 (integrin αMβ2, CD11b/CD18) (human, UniProt P11215 17-1152; P05107 23-769)
- ASSAY_PROTOCOL: flow cytometry, HEK293/Mac-1 cells, PBS/MnCl2 (Mn2+), 10 µg/ml of this antibody; binding of reporter mAb KIM127 read

Entry anti-Mac-1 antibody clone 27E12 (antibody, human IgG4, V domains shown) VH: QVQLQQSGTVLARPGASVKMSCKASGYTFTSYWMHWVKQRPGQGLEWIGAIYPGNSDTSYNQKFKGKAKLTAVTSASTAYMELSSLTNEDSAVYYCTRGGGSYEFAYWGQGTTVTVSS VL: DIELTQSPAIMSASPGEKVTMTCSVSSSVSYMYWYQQKPGSSPRLLIYDTSNLASGVPARFSGSGSGTSYSLTISSMEAEDAATYYCQQWSSNPFTFGSGTKLEIK , KIM127 (Expression relative to IgG4) reported as 0.71 relative to IgG4

Entry anti-Mac-1 antibody clone 25A04 (antibody, human IgG4, V domains shown) VH: EVQLVESGGGLVQPGGSLRLSCAASGFTFSFTAMHWVRQAPGKGLEWVSAIIYNGSEADYADSVKGRFTISRDNSKNTLYLQMNSLRAEDTAVYYCARANDYDHGCCDNYAMDYWGQGTLVTVSS VL: DIQMTQSPSSLSASVGDRVTITCRASQGIGSYLYWYQQKPGKAPKLLIYDASNLQSGVPSRFSGSGSGTDFTLTISSLQPEDFATYYCMQHGGWPLTFGQGTKVEIK , KIM127 (Expression relative to IgG4) reported as 1.34 relative to IgG4

Entry anti-Mac-1 antibody clone m2396 (antibody, human IgG4, V domains shown) VH: QVQLQESGPGLVKPSETLSLTCTVSGFSLTSNSISWVRQPPGKGLEWMGAIWSGGGTDYNPSLKSRLTISRDTSKSQVFLKMSSLTAADTAIYFCTRGGYPYYFDYWGQGVLVTVSS VL: DIVMTQSPDSLAVSLGERVTINCKSSQSLLYSENQENYLAWYQQKPGQSPKLLIYWASTRQSGVPDRFSGSGSGTDFTLTISSVQAEDLAIYYCQQYYDTPLTFGGGTKLEIK , KIM127 (Expression relative to IgG4) reported as 0.81 relative to IgG4

Entry anti-Mac-1 antibody clone 27G04 (antibody, human IgG4, V domains shown) VH: QVKLQESGPELVKPGASVKISCKASGYSFTDYNMNWVKQSNGKSLEWIGVINPNYGTTSYNQKFKGKATLTVDQSSSTAYMQLNSLTSEDSAVYYCARTFDYDDDAFAYWGQGTTVTVSS VL: DIELTQSPAIMSASPGEKVTITCSASSSVSDMHWYQQKSGTSPKRWIYDTSKLASGVPARFSGSGSGTSYSLTISNMEAEDAATYYCQQWSSNPPTFGAGTKLELK , KIM127 (Expression relative to IgG4) reported as 0.89 relative to IgG4

Entry anti-Mac-1 antibody clone DF4M-31 (antibody, human IgG4, V domains shown) VH: EVQLVESGGGLVQPGGSLRLSCAASGFTFTSATMSWVRQAPGKGLEWVSIISPGGSETYYADSVKGRFTISRDNSKNTLYLQMNSLRAEDTAVYYCARGGDYPSYYMDPWGQGTLVTVSS VL: DIQMTQSPSSLSASVGDRVTITCRASQSISNYLAWYQQKPGKAPKLLIYGTSSLQSGVPSRFSGSGSGTDFTLTISSLQPEDFATYYCQQGHQWPWTFGQGTKVEIK , KIM127 (Expression relative to IgG4) reported as 1.48 relative to IgG4
